runDescription: xn = mol fraction of the nth substance listed
assayContext: 318.15 K, Wilhelmy plate method, x1 = 0.45
Numbers after ± are expanded uncertainties.
quantityMeasured: surface tension liquid-gas
Be sure to follow the number with its unit.

Guide cases for surface tension liquid-gas, answers given:
COC(=O)c1ccccc1 [methyl benzoate] + CCO ... 26.4 ± 0.4 mN/m
CCOC(=O)CC(C)C [ethyl 3-methylbutanoate] + CCO ... 21.08 ± 0.4 mN/m

Query: Given the entry CCC(=O)OCc1ccccc1 [benzyl propanoate] + CCO , report its measured surface tension liquid-gas.
Result: 25.78 ± 0.4 mN/m

Query: Given the entry CCOC(=O)CC(C)=O [ethyl 3-oxobutanoate] + CCO , report its measured surface tension liquid-gas.
Result: 24.79 ± 0.4 mN/m

Query: Given the entry CC(=O)OCc1ccccc1 [benzyl ethanoate] + CCO , report its measured surface tension liquid-gas.
Result: 26.3 ± 0.4 mN/m

Query: Given the entry CCOC(=O)c1ccccc1O [ethyl 2-hydroxybenzoate] + CCO , report its measured surface tension liquid-gas.
Result: 25.7 ± 0.4 mN/m

Cited source: the NIST ThermoML archive (doi:10.1021/je060139a)
